B1: Nuclear distribution protein nudE homolog 1 (Homo sapiens), Q9NXR1 (parent)
chain: MEDSGKTFSSEEEEANYWKDLAMTYKQRAENTQEELREFQEGSREYEAELETQLQQIETRNRDLLSENNRLRMELETIKEKFEVQHSEGYRQISALEDDLAQTKAIKDQLQKYIRELEQANDDLERAKRATIMSLEDFEQRLNQAIERNAFLESELDEKENLLESVQRLKDEARDLRQELAVQQKQEKPRTPMPSSVEAERTDTAVQATGSVPSTPIAHRGPSSSLNTPGSFRRGLDDSTGGTPLTPAARISALNIVGDLLRKVGALESKLASCRNLVYDQSPNRTGGPASGRSSKNRDGGERRPSSTSVPLGDKGLDTSCRWLSKSTTRSSSSC

variants of: B1; conditions: with 1433e_human YWHAE
endpointLabel: effect of a mutation on the interaction

> print(dat)
   variant   valuereported
1    R234C  with no effect
2    S214A  with no effect
